Tested on: SK-MEL-5
ASSAY_COMMENT: NCI cytotoxicity screen, Melanoma panel
Format: cell-based
TEST_SETTINGS: Homo sapiens, single dose 10 µM, negative = lethal, read-out: Percent growth inhibition
inhibition at 10 µM by entry:
Reply numerically in %, unit not repeated.

As a guide, the following entries are already answered.
MOLECULE	MEASUREMENT_UNIT	inhibition at 10 µM
c1cn2cc(-c3ccc4c(c3)ncn4C3CCCCC3)nc(-c3ccc4c(c3)ncn4C3CCCCC3)c2n1 [Compound 30]	%	20.5
c1ccc2c(-c3cn4ccnc4c(-c4ccc5c(c4)ncn5C4CCCCC4)n3)cccc2c1 [Compound 12]	%	2.13
c1ccc(-c2cn3ccnc3c(-c3ccc4c(c3)ncn4C3CCCCC3)n2)cc1 [Compound 9]	%	5.71
Brc1cn2ccnc2c(-c2ccc3c(c2)ncn3C2CCCCC2)n1 [Compound 8]	%	8.35
COc1ccc(-c2cn3ccnc3c(-c3ccc4c(c3)ncn4C3CCCCC3)n2)cc1 [Compound 10]	%	5.95

Requested read-out: inhibition at 10 µM. Entry: Fc1ccc(-c2cn3ccnc3c(-c3ccc4c(c3)ncn4C3CCCCC3)n2)cc1 [Compound 13]
2.9

Recorded inhibition at 10 µM of c1cn2cc(-c3ccsc3)nc(-c3ccc4c(c3)ncn4C3CCCCC3)c2n1 [Compound 14] , please.
24.8

Would you kindly share the measured inhibition at 10 µM for c1csc(-c2cn3ccnc3c(-c3ccc4c(c3)ncn4C3CCCCC3)n2)c1 [Compound 22] ?
1.16

###

Test system: A549/ATCC
ASSAY_COMMENT: NCI cytotoxicity screen, Non-Small Cell Lung Cancer panel
Type: cell-based
TEST_SETTINGS: Homo sapiens; A549/ATCC; single dose 10 µM; negative = lethal; read-out: Percent growth inhibition
Readings of inhibition at 10 µM for the listed molecules
Lab book: enter the figure in %, no units written.

c1csc(-c2cn3ccnc3c(-c3ccc4c(c3)ncn4C3CCCCC3)n2)c1 1.63
COc1ccc(-c2cn3ccnc3c(-c3ccc4c(c3)ncn4C3CCCCC3)n2)cc1 7.33
Fc1ccc(-c2cn3ccnc3c(-c3ccc4c(c3)ncn4C3CCCCC3)n2)cc1 8.95
c1ccc2c(-c3cn4ccnc4c(-c4ccc5c(c4)ncn5C4CCCCC4)n3)cccc2c1 36.2

Consider the molecule Brc1cn2ccnc2c(-c2ccc3c(c2)ncn3C2CCCCC2)n1 and give its measured inhibition at 10 µM.
4.8

Look at this molecule and give its reported inhibition at 10 µM. c1cn2cc(-c3ccc4c(c3)ncn4C3CCCCC3)nc(-c3ccc4c(c3)ncn4C3CCCCC3)c2n1
4.93

Any idea what inhibition at 10 µM was measured for c1ccc(-c2cn3ccnc3c(-c3ccc4c(c3)ncn4C3CCCCC3)n2)cc1 ?
9

###

Test system: BT-549
ASSAY_COMMENT: NCI cytotoxicity screen, Breast Cancer panel
Assay type: cell-based
TEST_SETTINGS: Homo sapiens, single dose 10 µM, negative = lethal, read-out: Percent growth inhibition
PARAMETER: inhibition at 10 µM (%)
Write the number in % without appending the unit.

Sample answers from the record:
c1ccc(-c2cn3ccnc3c(-c3ccc4c(c3)ncn4C3CCCCC3)n2)cc1 0.43
c1cn2cc(-c3ccsc3)nc(-c3ccc4c(c3)ncn4C3CCCCC3)c2n1 4.68

// switching to the query compound
What measured inhibition at 10 µM goes with Brc1cn2ccnc2c(-c2ccc3c(c2)ncn3C2CCCCC2)n1 ?
6.38

###

Test system: RPMI-8226
ASSAY_COMMENT: NCI cytotoxicity screen, Leukemia panel
Type: cell-based
TEST_SETTINGS: Homo sapiens; RPMI-8226; single dose 10 µM; negative = lethal; read-out: Percent growth inhibition
Method: Cytotoxicity was performed at National Cancer Institute (NCI), Bethesda, USA as per their protocols.
So basically: inhibition at 10 µM at 20% or higher? That is Yes. Lower than 20%? That is No.

c1cn2cc(-c3ccc4c(c3)ncn4C3CCCCC3)nc(-c3ccc4c(c3)ncn4C3CCCCC3)c2n1 Yes
Fc1ccc(-c2cn3ccnc3c(-c3ccc4c(c3)ncn4C3CCCCC3)n2)cc1 No
Brc1cn2ccnc2c(-c2ccc3c(c2)ncn3C2CCCCC2)n1 No
c1cn2cc(-c3ccsc3)nc(-c3ccc4c(c3)ncn4C3CCCCC3)c2n1 Yes
c1csc(-c2cn3ccnc3c(-c3ccc4c(c3)ncn4C3CCCCC3)n2)c1 No
c1ccc2c(-c3cn4ccnc4c(-c4ccc5c(c4)ncn5C4CCCCC4)n3)cccc2c1 Yes
c1ccc(-c2cn3ccnc3c(-c3ccc4c(c3)ncn4C3CCCCC3)n2)cc1 No

# evaluate next
hey, is inhibition at 10 µM for this one >= 20%? COc1ccc(-c2cn3ccnc3c(-c3ccc4c(c3)ncn4C3CCCCC3)n2)cc1
No

###

Tested on: UACC-62
ASSAY_COMMENT: NCI cytotoxicity screen, Melanoma panel
Format: cell-based, human
TEST_SETTINGS: Homo sapiens, single dose 10 µM, negative = lethal, read-out: Percent growth inhibition
Could you label it Fulfilled if measured inhibition at 10 µM is 2% or higher, and Not fulfilled otherwise?

Use these answered entries as a reference point.
MOLECULE	CAT
c1cn2cc(-c3ccsc3)nc(-c3ccc4c(c3)ncn4C3CCCCC3)c2n1 [Compound 14]	Fulfilled
c1csc(-c2cn3ccnc3c(-c3ccc4c(c3)ncn4C3CCCCC3)n2)c1 [Compound 22]	Not fulfilled
COc1ccc(-c2cn3ccnc3c(-c3ccc4c(c3)ncn4C3CCCCC3)n2)cc1 [Compound 10]	Not fulfilled
c1ccc2c(-c3cn4ccnc4c(-c4ccc5c(c4)ncn5C4CCCCC4)n3)cccc2c1 [Compound 12]	Fulfilled
c1cn2cc(-c3ccc4c(c3)ncn4C3CCCCC3)nc(-c3ccc4c(c3)ncn4C3CCCCC3)c2n1 [Compound 30]	Fulfilled

Moving on to another molecule below.
For this molecule, is measured inhibition at 10 µM 2% or higher? Fc1ccc(-c2cn3ccnc3c(-c3ccc4c(c3)ncn4C3CCCCC3)n2)cc1 [Compound 13]
Fulfilled

###

Test system: SK-MEL-2
ASSAY_COMMENT: NCI cytotoxicity screen, Melanoma panel
Assay type: cell-based
TEST_SETTINGS: Homo sapiens, single dose 10 µM, negative = lethal, read-out: Percent growth inhibition
Mark Fulfilled for reported inhibition at 10 µM of 10% or greater; mark Not fulfilled for anything smaller.

Example entries and their recorded answers appear below.
Brc1cn2ccnc2c(-c2ccc3c(c2)ncn3C2CCCCC2)n1 Not fulfilled
c1cn2cc(-c3ccsc3)nc(-c3ccc4c(c3)ncn4C3CCCCC3)c2n1 Not fulfilled
c1csc(-c2cn3ccnc3c(-c3ccc4c(c3)ncn4C3CCCCC3)n2)c1 Fulfilled
c1ccc(-c2cn3ccnc3c(-c3ccc4c(c3)ncn4C3CCCCC3)n2)cc1 Not fulfilled
Fc1ccc(-c2cn3ccnc3c(-c3ccc4c(c3)ncn4C3CCCCC3)n2)cc1 Not fulfilled

Threshold query (inhibition at 10 µM >= 10%) on c1ccc2c(-c3cn4ccnc4c(-c4ccc5c(c4)ncn5C4CCCCC4)n3)cccc2c1
Fulfilled

###

Test system: IGROV1
ASSAY_COMMENT: NCI cytotoxicity screen, Ovarian Cancer panel
Format: cell-based
TEST_SETTINGS: Homo sapiens, IGROV-1, single dose 10 µM, negative = lethal, read-out: Percent growth inhibition
inhibition at 10 µM reference

Recorded results for 3 molecules are shown here.
c1ccc2c(-c3cn4ccnc4c(-c4ccc5c(c4)ncn5C4CCCCC4)n3)cccc2c1 3.68%
c1cn2cc(-c3ccc4c(c3)ncn4C3CCCCC3)nc(-c3ccc4c(c3)ncn4C3CCCCC3)c2n1 < 1%
Fc1ccc(-c2cn3ccnc3c(-c3ccc4c(c3)ncn4C3CCCCC3)n2)cc1 6.4%

Lab note: next molecule to report on.
Would you kindly share the measured inhibition at 10 µM for COc1ccc(-c2cn3ccnc3c(-c3ccc4c(c3)ncn4C3CCCCC3)n2)cc1 ?
5.82%

###

Test system: CCRF-CEM
ASSAY_COMMENT: NCI cytotoxicity screen, Leukemia panel
Type: cell-based
TEST_SETTINGS: Homo sapiens, single dose 10 µM, negative = lethal, read-out: Percent growth inhibition
PARAMETER: inhibition at 10 µM (%)
Enter your answer as a number in %; do not include the unit.

c1ccc(-c2cn3ccnc3c(-c3ccc4c(c3)ncn4C3CCCCC3)n2)cc1 11.7

Which inhibition at 10 µM value is on record for c1ccc2c(-c3cn4ccnc4c(-c4ccc5c(c4)ncn5C4CCCCC4)n3)cccc2c1 ?
27.2

Fill blank: measured inhibition at 10 µM of the compound c1cn2cc(-c3ccsc3)nc(-c3ccc4c(c3)ncn4C3CCCCC3)c2n1 is ____.
1.1

I am curious: what inhibition at 10 µM value has been reported for COc1ccc(-c2cn3ccnc3c(-c3ccc4c(c3)ncn4C3CCCCC3)n2)cc1 ?
1.19

Please look up its inhibition at 10 µM: c1cn2cc(-c3ccc4c(c3)ncn4C3CCCCC3)nc(-c3ccc4c(c3)ncn4C3CCCCC3)c2n1
35.1

###

Test system: K-562
ASSAY_COMMENT: NCI cytotoxicity screen, Leukemia panel
Type: cell-based
TEST_SETTINGS: Homo sapiens, K562; K-562; single dose 10 µM; negative = lethal; read-out: Percent growth inhibition
PARAMETER: inhibition at 10 µM (%)
Express your answer in %, writing the number without its unit.

Completed entries (count: 2):
Brc1cn2ccnc2c(-c2ccc3c(c2)ncn3C2CCCCC2)n1 17.4
c1ccc(-c2cn3ccnc3c(-c3ccc4c(c3)ncn4C3CCCCC3)n2)cc1 31.1

Shift focus to the following entry.
What value of inhibition at 10 µM has been reported for the following compound? c1cn2cc(-c3ccsc3)nc(-c3ccc4c(c3)ncn4C3CCCCC3)c2n1
9.6
